Target: Fuc(a1-2)Gal(b1-4)GlcNAc6S
Experiment: glycan array binding signal (z-score within array); higher = stronger binding
Details: glycan notation: IUPAC condensed, linker removed
The full list was thinned out, with the strongest signals kept by preference.
A collection of binders and their measured glycan array binding signal (z-score)
Quick one: just the number, no unit, thanks!

Please fill in: glycan array binding signal (z-score) reported for FBG3 (Homo sapiens), Q9H4M3 (protein) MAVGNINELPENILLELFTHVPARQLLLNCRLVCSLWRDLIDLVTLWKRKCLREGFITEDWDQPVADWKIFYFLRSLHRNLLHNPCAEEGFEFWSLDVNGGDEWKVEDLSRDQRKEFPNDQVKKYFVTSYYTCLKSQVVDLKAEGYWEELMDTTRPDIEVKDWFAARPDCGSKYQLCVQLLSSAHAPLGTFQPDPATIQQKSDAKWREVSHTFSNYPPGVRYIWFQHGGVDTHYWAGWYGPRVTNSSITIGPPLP = 0.121

Data provenance: the supplement of paper PMC8728848
